tested on: COLO 205 colon; test: NCI tumour cell line growth inhibition, 48 h; in the data active means GI50 below about 0.43 µM; inactive means the rest
Thanks in advance; please answer with one of these: active, inactive

Some entries whose results are on file:
| molecule | target_under_test | cat |
| --- | --- | --- |
| CCSc1nc(N)c2cnn(CC)c2n1 | COLO 205 colon | inactive |
| COc1ccc(F)cc1-c1ccnc2[nH]c(C3=CCN(C4CCC(CC(=O)O)CC4)CC3)cc12 (configuration not stated) | COLO 205 colon | active |
| CCOC(=O)N(O)c1ccc(/C=C/c2ccccc2)cc1 | COLO 205 colon | inactive |
| O=S(=O)(Nc1ccc(Cl)c(Cl)c1)c1ccc(-c2cnc(C3CC3)o2)cc1 | COLO 205 colon | inactive |
| C[C@@H](C[C@H](CCO)c1ccccc1)c1ccc2ccccc2c1 | COLO 205 colon | inactive |
| O=C(N/N=C/c1ccc(N(CCCl)CCCl)cc1)c1ccc(C(=O)N/N=C/c2ccc(N(CCCl)CCCl)cc2)cc1 | COLO 205 colon | inactive |

Prompt: State the result this test recorded for Cn1cccc1-c1cc(-c2ccccc2)nc(N)c1C#N .
Response: inactive

====

tested on: KM12 colon; assay: NCI tumour cell line growth inhibition, 48 h
Where a SMILES comes first, the peptide text is derived from it. [ ]: non-standard residue; d: D form. The star is where a group is joined. Cbz = O=C(OCc1ccccc1)*; Aib = CC(C)(N)C(=O)O
Reported TGI values follow for various compounds

Consider the worked cases shown below.
| compound | TGI |
| --- | --- |
| CC1/C(=N/O)CC(c2ccccc2)N(N=O)C1c1ccccc1 (stereo not drawn) | > 100 µM |
| NNS(=O)(=O)c1ccc(/C=C2\NC(=O)NC2=O)cc1 | > 100 µM |
| Cc1ccc(C)c2c1n1c(=O)n(C)c(=O)n21 | > 100 µM |

Prompt: Any idea what TGI was measured for COC(=O)C(/C(=N\O)C(=O)Nc1ccc(Br)cc1)c1nc2ccccc2[nH]c1=O (stereo not drawn) ?
Response: > 100 µM

Prompt: Any idea what TGI was measured for O=S(=O)(Nc1ccc(Cl)c(Cl)c1)c1ccc(-c2cnc(C3CC3)o2)cc1 ?
Response: 15.4 µM

Prompt: Any idea what TGI was measured for CC(C)OP(=O)(OC(C)C)/C(C#N)=C/c1c[nH]c2ccccc12 ?
Response: > 100 µM

Prompt: Any idea what TGI was measured for O=C(CCc1cc(-c2ccc(F)cc2)n[nH]1)N(Cc1ccccc1)Cc1ccccc1 ?
Response: > 100 µM

Prompt: Any idea what TGI was measured for O=C(N/N=C/c1ccc(N(CCCl)CCCl)cc1)c1ccc(C(=O)N/N=C/c2ccc(N(CCCl)CCCl)cc2)cc1 ?
Response: > 100 µM

Prompt: Any idea what TGI was measured for C[C@H]1CCC2C(OC(=O)[C@@H]2CN(C)C)[C@]2(C)C(=O)C=CC12O (stereo partly drawn) ?
Response: 15.1 µM

Prompt: Any idea what TGI was measured for CC(C)(NC(=O)C(C)(C)NC(=O)OCc1ccccc1)C(=O)O (Cbz-[Aib]-[Aib]-OH) ?
Response: > 100 µM

Prompt: Any idea what TGI was measured for CCOP(=O)(Cc1nc(C#N)c(N)o1)OCC ?
Response: > 100 µM

Prompt: Any idea what TGI was measured for CC(CC(=O)Nc1ccc(NC(=O)CC(C)N=NC(N)=O)cc1)N=NC(N)=O (stereo not drawn) ?
Response: > 100 µM

Prompt: Any idea what TGI was measured for c1ccc(OCc2nnc(CCCCCCCCc3nnc(COc4ccccc4)o3)o2)cc1 ?
Response: > 100 µM

Prompt: Any idea what TGI was measured for Cc1ccc2c(=O)cc(-c3cccc(F)c3)[nH]c2n1 ?
Response: 1.29 µM

Prompt: Any idea what TGI was measured for COc1ccc(C2NC(N)=C(C#N)C3=C2C(C)CCC3)cc1OC (stereo not drawn) ?
Response: > 100 µM

Prompt: Any idea what TGI was measured for CCCCCC/C(CC(=O)CCC(=O)NCCc1ccccc1)=N\Nc1ccc([N+](=O)[O-])cc1[N+](=O)[O-] ?
Response: > 100 µM

Prompt: Any idea what TGI was measured for Cc1ccc([N+]2=NC(c3ccccc3)=NN(c3ccccc3)C2)cc1 ?
Response: > 100 µM

Prompt: Any idea what TGI was measured for CSc1nc2ccc(C)cc2cc1/C=C1/C=C(c2ccccc2)NC1=O ?
Response: 82.9 µM

Prompt: Any idea what TGI was measured for COC1CC(n2cc(F)c(N)nc2=O)OC1CO (stereo not drawn) ?
Response: > 100 µM

Prompt: Any idea what TGI was measured for CC/C(C)=C1\CCC(CN(C)C)C1=O (stereo not drawn) ?
Response: 28.4 µM

Prompt: Any idea what TGI was measured for CCOC(=O)C1=C(C)N(Cc2ccccc2)C2(O)C(OC)CC(=O)C3C(=O)N(c4ccccc4)C(=O)C132 (stereo not drawn) ?
Response: 55.6 µM

Prompt: Any idea what TGI was measured for Cc1c2ccccc2c(C)n2c1nc1cc(Cl)c(Cl)cc12 ?
Response: > 100 µM

Prompt: Any idea what TGI was measured for CC1OC(=O)N2CCC=CC12 (stereo not drawn) ?
Response: > 100 µM
